Target: TEC (Homo sapiens, UniProt P42680)
Sequence (P42680 1-631): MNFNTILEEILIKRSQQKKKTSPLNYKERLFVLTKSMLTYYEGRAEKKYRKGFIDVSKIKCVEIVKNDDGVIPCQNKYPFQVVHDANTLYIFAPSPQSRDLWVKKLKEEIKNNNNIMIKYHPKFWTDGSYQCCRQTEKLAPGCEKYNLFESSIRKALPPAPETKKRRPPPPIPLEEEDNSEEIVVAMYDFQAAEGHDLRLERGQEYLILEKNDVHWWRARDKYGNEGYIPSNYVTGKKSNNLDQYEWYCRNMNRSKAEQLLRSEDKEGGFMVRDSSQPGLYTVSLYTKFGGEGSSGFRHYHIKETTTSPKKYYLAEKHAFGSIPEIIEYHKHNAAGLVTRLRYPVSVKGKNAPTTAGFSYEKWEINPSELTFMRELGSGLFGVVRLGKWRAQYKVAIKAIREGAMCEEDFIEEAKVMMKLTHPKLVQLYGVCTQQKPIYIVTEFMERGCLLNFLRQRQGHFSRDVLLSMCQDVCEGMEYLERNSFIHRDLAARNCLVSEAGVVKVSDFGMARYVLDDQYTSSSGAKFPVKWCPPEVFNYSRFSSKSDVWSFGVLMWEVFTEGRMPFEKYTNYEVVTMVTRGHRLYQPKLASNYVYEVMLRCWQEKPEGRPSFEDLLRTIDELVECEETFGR
Assay: scanMAX binding POC, TEC
Settings: 1 μM
Measured TEC binding POC values are reported for all entries that follow.

Guide cases for TEC binding POC, answers given:
CC#CC(=O)N1CC[C@@H](n2c(=O)n(-c3ccc(Oc4ccccc4)cc3)c3c(N)ncnc32)C1 = 9.4% of control
C=CC(=O)Nc1cccc(Oc2nc(Nc3ccc(N4CCN(C)CC4)cc3)nc3ccoc23)c1 = 8.5% of control
C=CC(=O)Nc1cccc(Nc2nc(Nc3ccc(OCCOC)cc3)ncc2F)c1 = 8.1% of control

Ask: Return reported TEC binding POC; argument: C=CC(=O)N1CCC[C@@H](n2nc(-c3ccc(Oc4ccccc4)cc3)c3c(N)ncnc32)C1
Result: 5.9% of control

Ask: Likewise for C[C@H]1CN(C2COC2)CCN1c1ccc(Nc2cc(-c3ccnc(N4CCn5c(cc6c5CC(C)(C)C6)C4=O)c3CO)cn(C)c2=O)nc1 ?
Result: 17% of control

----------
target: JNK1 (MAPK8) (Homo sapiens); assay: scanMAX binding POC, JNK1; conditions: 1 μM
Sequence (P45983 whole entry): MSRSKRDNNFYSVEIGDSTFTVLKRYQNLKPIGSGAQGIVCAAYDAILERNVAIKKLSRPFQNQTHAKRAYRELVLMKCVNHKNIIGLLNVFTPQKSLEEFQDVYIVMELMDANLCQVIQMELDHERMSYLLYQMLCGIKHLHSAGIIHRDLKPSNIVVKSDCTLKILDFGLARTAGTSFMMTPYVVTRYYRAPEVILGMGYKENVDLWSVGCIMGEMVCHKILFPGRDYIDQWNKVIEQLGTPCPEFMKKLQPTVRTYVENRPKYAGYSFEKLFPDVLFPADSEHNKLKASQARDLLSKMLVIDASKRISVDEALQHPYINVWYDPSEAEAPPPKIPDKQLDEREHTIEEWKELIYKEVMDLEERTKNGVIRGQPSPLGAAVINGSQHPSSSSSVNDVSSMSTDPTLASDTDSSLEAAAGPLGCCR
Measured JNK1 (MAPK8) POC values are reported for all entries that follow.

C=CC(=O)N1CCC[C@@H](c2ccc(C(N)=O)c3[nH]ccc23)C1 [Elsubrutinib] = 96% of control
C[C@H]1CN(C2COC2)CCN1c1ccc(Nc2cc(-c3ccnc(N4CCn5c(cc6c5CC(C)(C)C6)C4=O)c3CO)cn(C)c2=O)nc1 [Fenebrutinib] = 100% of control

Ask: Return reported JNK1 (MAPK8) POC; argument: CC#CC(=O)N[C@H]1CCCN(c2c(F)cc(C(N)=O)c3[nH]c(C)c(C)c23)C1 [Branebrutinib]
Result: 82% of control

Ask: Likewise for C=CC(=O)N1CCC([C@@H]2CCNc3c(C(N)=O)c(-c4ccc(Oc5ccccc5)cc4)nn32)CC1 [Zanubrutinib] ?
Result: 99% of control

----------
molecular target: JNK3 (MAPK10) (Homo sapiens); assay: scanMAX binding POC, JNK3; conditions: 1 μM
Sequence (P53779 whole entry): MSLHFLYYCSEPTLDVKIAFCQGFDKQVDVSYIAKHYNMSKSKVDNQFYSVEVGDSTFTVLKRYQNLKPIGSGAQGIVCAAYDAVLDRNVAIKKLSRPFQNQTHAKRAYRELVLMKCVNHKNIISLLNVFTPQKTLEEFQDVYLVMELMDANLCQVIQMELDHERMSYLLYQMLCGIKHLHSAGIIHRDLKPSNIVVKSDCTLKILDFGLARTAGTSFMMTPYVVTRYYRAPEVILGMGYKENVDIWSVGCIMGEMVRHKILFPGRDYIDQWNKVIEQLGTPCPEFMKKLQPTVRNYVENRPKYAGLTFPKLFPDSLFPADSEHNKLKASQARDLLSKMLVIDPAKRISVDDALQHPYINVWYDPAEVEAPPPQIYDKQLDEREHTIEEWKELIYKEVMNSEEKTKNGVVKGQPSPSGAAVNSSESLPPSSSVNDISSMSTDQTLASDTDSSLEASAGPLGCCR
Measured JNK3 (MAPK10) POC values are reported for all entries that follow.

CC#CC(=O)N[C@H]1CCCN(c2c(F)cc(C(N)=O)c3[nH]c(C)c(C)c23)C1 = 89% of control
C=CC(=O)N1CCC(c2ccc(C(N)=O)c(-c3ccc(Oc4ccccc4)cc3)n2)CC1 = 100% of control
C=CC(=O)N1CCC([C@@H]2CCNc3c(C(N)=O)c(-c4ccc(Oc5ccccc5)cc4)nn32)CC1 = 93% of control
C=CC(=O)N1CCC[C@@H](n2c(=O)n(-c3ccc(Oc4ccccc4)cc3)c3c(N)nccc32)C1 = 90% of control
C=CC(=O)Nc1cccc(Nc2nc(Nc3ccc(OCCOC)cc3)ncc2F)c1 = 3.9% of control
C=CC(=O)N1CCC(CNc2ncnc(N)c2-c2ccc(Oc3ccccc3)cc2)CC1 = 100% of control
CC#CC(=O)N1CCC[C@H]1c1nc(-c2ccc(C(=O)Nc3ccccn3)cc2)c2c(N)nccn12 = 97% of control
C=CC(=O)N(C)CCOc1c(N)ncnc1-c1cc(F)cc(NC(=O)c2ccc(C3CC3)cc2F)c1C = 100% of control
C[C@H]1CN(C2COC2)CCN1c1ccc(Nc2cc(-c3ccnc(N4CCn5c(cc6c5CC(C)(C)C6)C4=O)c3CO)cn(C)c2=O)nc1 = 100% of control

Ask: Return reported JNK3 (MAPK10) POC; argument: COc1ccc(F)cc1C(=O)NCc1ccc(-c2nn([C@@H](C)C(F)(F)F)c(N)c2C(N)=O)cc1
Result: 100% of control
